Test system: EKVX NSCLC
Experiment: NCI-60 one-dose screen, 48 h (100 = growth as untreated, 0 = no growth, -100 = all killed)
Settings: 10 µM unless noted
About 83,000 compounds went through this panel and 20% of them were active in at least one assay; those are over-represented in the sample as a whole.
QUANTITY: growth (%)
State the answer as a number, implicitly in %.

Supply reported growth belonging to this compound: OC(c1ccccc1)(c1ccccc1)C1CCN(c2ccc3nnc(Cl)n3n2)CC1 19.9

Return the recorded growth value; entry: COc1cc2cc(C(=O)N3C[C@@H](CCl)c4c3cc(OC(=O)N(CCC(=O)N3CCN(C)CC3)C3CCCCC3)c3ccccc43)[nH]c2c(OC)c1OC -78.8

Query growth for COc1ccccc1/C=C/c1cccc(NC(=S)NCCCCN(C)C)c1 -91.7

For the compound COc1ccc(NC(=O)Cn2c(/C=C/c3cccc(Br)c3)nc3ccccc3c2=O)cc1 , report growth. 81.8

# return recorded growth for input CC(C)(C)C(=O)C1CC(C#N)=C2C=Cc3c(ccc4ccccc34)N21 (configuration not stated) 79.7

Fill in reported growth for this entry: O=C1Nc2cc(-c3ccc(NS(=O)(=O)c4ccc([N+](=O)[O-])cc4)cc3)ccc2/C1=C/c1ccc[nH]1 3.18

In one line, give reported growth of the entry Clc1ccc(CNc2nc(SCCN3CCOCC3)nc3c2cnn3CC(Cl)c2ccc(Br)cc2)cc1 (configuration not stated) . 31.8

Return value of growth for input COc1cc(CNC(=O)C[C@H](C)CCC=C(C)C)ccc1OCc1cn(-c2ccc(Br)cc2)nn1 , no commentary. 79

# return recorded growth for entry COc1cc(C2CC(c3cc(OC)c(OC)c(OC)c3)=Nc3c(N)nc(N)nc3N2)ccc1Oc1nc(Nc2ccc(F)cc2)nc(N(C)C)n1 (configuration not stated) 67.5

Read off the recorded growth for c1ccc(CSc2nnc(-c3ccc4nc(-c5ccccc5)[nH]c4c3)o2)cc1 57.3

Return value of growth for input CN(C)c1nc(NCCNS(=O)(=O)c2ccc(C(=O)/C=C/c3ccc(F)cc3)cc2)nc(N2CCOCC2)n1 , no commentary. 59

Quote growth reported for COc1ccc(-c2cc(-c3ccccc3)c(C#N)c(=O)[nH]2)cc1S(N)(=O)=O please. 95.9

For the compound CN(C)CCOc1ccc(C(=O)C2[C@H](c3ccc(Cl)cc3)[C@@H](c3ccccc3)NC23C(=O)Nc2ccc(Cl)cc23)cc1 (some centres not stated) , report growth. -93.9

Answer with reported growth of NS(=O)(=O)c1ccc(N2N=C(c3ccc(NC(=O)Nc4ccccc4)cc3)CC2c2ccc(Br)cc2)cc1 (configuration not stated) -95.8

State its growth for this compound: C=CCSc1nnc(-c2ccc(-c3nc4ccccc4[nH]3)cc2)o1 71.5

Identify measured growth corresponding to CC[C@]12C=CCN3CC[C@@]4(c5ccc(OC)cc5N(C)[C@H]4[C@@](O)(C(=O)OC)[C@@H]1OC(=O)CCC[P+](c1ccc(OC)cc1)(c1ccc(OC)cc1)c1ccc(OC)cc1)[C@@H]32 -85

// Input: O=C(Nc1ccc(-c2ccc3c(c2)NC(=O)/C3=C\c2ccc[nH]2)cc1)Nc1ccc(Cl)c(Cl)c1 . Output its growth only. 46.5

Reference for the values: PubChem BioAssay (NCI)
